- tested target: human GPR39 receptor (Homo sapiens)
- Construct: PC3 Cells, Expressing the Endogenous Human GPR39 Receptor; endogenous in cells
- Sequence (O43194 whole entry): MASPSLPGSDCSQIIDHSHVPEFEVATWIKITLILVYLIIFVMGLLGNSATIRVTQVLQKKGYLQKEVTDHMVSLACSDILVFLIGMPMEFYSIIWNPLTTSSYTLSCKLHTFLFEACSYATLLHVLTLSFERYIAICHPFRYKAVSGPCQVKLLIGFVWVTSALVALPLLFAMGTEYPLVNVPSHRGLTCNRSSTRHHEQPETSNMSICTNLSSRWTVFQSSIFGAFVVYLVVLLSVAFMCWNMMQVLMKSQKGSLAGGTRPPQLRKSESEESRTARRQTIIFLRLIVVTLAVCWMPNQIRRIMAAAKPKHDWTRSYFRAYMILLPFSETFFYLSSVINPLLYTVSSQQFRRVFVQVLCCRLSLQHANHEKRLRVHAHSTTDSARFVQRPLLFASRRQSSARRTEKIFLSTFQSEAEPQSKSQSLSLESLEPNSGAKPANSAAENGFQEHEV
- method notes: Measurement of intracellular calcium response in PC3 cells (FLIPR), antagonism of the C3 agonist response
- measurement conditions: functional pKi (modified Cheng-Prusoff), inhibition of the C3 (TC-G 1008) response at EC90, 30 μM ZnCl2, read-out: fpKi activity
Provide the reported Ki of each item.

Take a look at these entries with their results.
>>> print(df.to_string())
                                   compound   observed_value
0  O=C(Nc1ccc(C(=O)N2CCC(C(F)(F)F)CC2)c(N2CCCC2)c1)C1CC1   63.1 to 251 nM
1  CN1CCN(C(=O)c2ccc(NC(=O)C3CC3)nc2N2CCCC2)C(c2ccccc2)C1 (single isomer, unassigned) [Example 149b]  1260 to 6310 nM
2  O=C(Nc1ccc(C(=O)N2CCn3c(nnc3C(F)(F)F)C2)c(N2CCCCCC2)c1)C1CC1  1260 to 6310 nM
3  O=C(Nc1ccc(C(=O)N2CCC(C(F)(F)F)CC2)c(N2CCCC2)n1)C1CC1        ≤ 50.1 nM
4  CN1CCN(C(=O)c2ccc(NC(=O)C3CC3)cc2N2CCCCC2)C(c2ccccc2)C1 (single isomer, unassigned) [Example 201a]   63.1 to 251 nM

// each compound listed below needs its Ki
1. Cc1cc(C(F)(F)F)nn1-c1cc(NC(=O)C2CC2)ccc1C(=O)N1CCS(=O)(=O)CC1
2. Cc1nnc(-c2ccc(C(=O)N3CCC(F)(F)CC3)c(-n3ccc(C(C)C)n3)c2)[nH]1
3. CN1CCN(C(=O)c2ccc(NC(=O)C3CC3)cc2N2CC3(CCOC3)C2)C(c2ccccc2)C1 (stereo not drawn)
4. O=C(Nc1ccc(C(=O)N2CCS(=O)(=O)CC2)c(N2CCC(F)(F)CC2)c1)C1CC1

**Result**
63.1 to 251 nM
≤ 50.1 nM
63.1 to 251 nM
1260 to 6310 nM
